Molecular target: p38 MAPKα isoform (MAPK14) (Homo sapiens, UniProt Q16539)
Sequence (Q16539 whole entry, canonical isoform): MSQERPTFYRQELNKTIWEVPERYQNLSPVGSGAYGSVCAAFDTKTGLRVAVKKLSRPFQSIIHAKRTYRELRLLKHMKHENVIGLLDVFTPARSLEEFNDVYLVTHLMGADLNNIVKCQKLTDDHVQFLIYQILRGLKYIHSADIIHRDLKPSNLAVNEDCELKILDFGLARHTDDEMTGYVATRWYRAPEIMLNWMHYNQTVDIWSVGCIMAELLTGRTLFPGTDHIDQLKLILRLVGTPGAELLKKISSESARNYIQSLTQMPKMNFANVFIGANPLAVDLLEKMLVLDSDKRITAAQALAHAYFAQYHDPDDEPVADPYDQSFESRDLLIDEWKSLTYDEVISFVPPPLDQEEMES
Test: Enzyme inhibition assay (FRET, Z-LYTE), p38 MAPKα via MAPKAP-K2 activation
Conditions: read-out: Enzyme Inhibition IC50 p38α
We label by threshold. Values of IC50 strictly beneath 30 nM are 1. Values of 30 nM and up are -1.

Molecular String | Class Label
CNCC(=O)Nc1cc(Oc2ccc(NC(=O)Nc3cc(C(C)(C)C)nn3-c3ccc(OC)cc3)c(Cl)c2Cl)ccn1 | 1

Please let me know if CNC(=O)Nc1cc(Oc2ccc(NC(=O)Nc3cc(C(C)(C)C)nn3-c3ccc(CO)cc3)c(Cl)c2Cl)ccn1 shows IC50 below 30 nM.
1

Please let me know if CC(C)(C)c1cc(NC(=O)Nc2ccc(Oc3ccnc(NC(=O)N4CCCC4)c3)c(Cl)c2Cl)n(-c2ccc(CO)cc2)n1 shows IC50 below 30 nM.
1

Please let me know if CNC(=O)Nc1cc(Oc2ccc(NC(=O)Nc3cc(C(C)(C)C)nn3-c3ccc(CO)cc3)c3cccnc23)ccn1 shows IC50 below 30 nM.
-1

Please let me know if COc1ccc(-n2nc(C(C)(C)C)cc2NC(=O)Nc2ccc(Oc3ccnc(NC(=O)NCCN(C)C)c3)c(Cl)c2Cl)cc1 shows IC50 below 30 nM.
1

Please let me know if COc1ccc(-n2nc(C(C)(C)C)cc2NC(=O)Nc2ccc(Oc3ccnc(NC(=O)N4CCCC4(C)C)c3)c(Cl)c2Cl)cc1 shows IC50 below 30 nM.
-1

Please let me know if COCC(=O)Nc1cc(CSc2ccc(NC(=O)Nc3cc(C(C)(C)C)nn3-c3ccc(OC)cc3)c(Cl)c2Cl)ccn1 shows IC50 below 30 nM.
1

Please let me know if COc1ccc(-n2nc(C(C)(C)C)cc2NC(=O)Nc2ccc(Oc3ccnc(NC(=O)N4CC[C@@H](N(C)C)C4)c3)c(Cl)c2Cl)cc1 shows IC50 below 30 nM.
1

Please let me know if CNC(=O)Nc1cc(COc2ccc(NC(=O)Nc3cc(C(C)(C)C)nn3-c3ccc(C)cc3)c3cccnc23)ccn1 shows IC50 below 30 nM.
-1

Please let me know if COCC(=O)Nc1cc(Oc2ccc(NC(=O)Nc3cc(C(C)(C)C)nn3-c3ccc(C)cc3)c3[nH]ncc23)ccn1 shows IC50 below 30 nM.
1

Please let me know if CN(C)CC(=O)Nc1cc(Oc2ccc(NC(=O)Nc3cc(C(C)(C)C)nn3-c3ccc(CO)cc3)c(Cl)c2Cl)ccn1 shows IC50 below 30 nM.
1

Please let me know if COc1ccc(-n2nc(C(C)(C)C)cc2NC(=O)Nc2ccc(Oc3ccnc(NC(=O)CN4CCOCC4)c3)c(Cl)c2Cl)cc1 shows IC50 below 30 nM.
1

Please let me know if CN(C)[C@H]1CCN(C(=O)Nc2cc(Oc3ccc(NC(=O)Nc4cc(C(C)(C)C)nn4-c4ccc(O)cc4)c(Cl)c3Cl)ccn2)C1 shows IC50 below 30 nM.
1

Please let me know if CC(C)(C)c1cc(NC(=O)Nc2ccc(Oc3ccnc(NC(=O)NC4CC4)c3)c(Cl)c2Cl)n(-c2ccc(CO)cc2)n1 shows IC50 below 30 nM.
-1

----------
Tested on: TNFα release in d-U937 cells
Assay: LPS-induced TNFα release in d-U937 cells
Type: cell-based, human
Settings: Homo sapiens, dU937, relative to 10 μg/mL BIRB796, read-out: LPS/TNFα REC50 d-U937
Each entry below carries its recorded EC50.
Express it in nM; write the number only.

Would you please look over these solved cases?
Compound | Numeric Value
COCC(=O)Nc1cc(Oc2cc(Cl)c(NC(=O)Nc3cc(C(C)(C)C)nn3-c3ccc(C)cc3)cc2Cl)ccn1 [Example 39] | 27
CN(C)CCNC(=O)Nc1cc(Oc2ccc(NC(=O)Nc3cc(C(C)(C)C)nn3-c3ccc(CO)cc3)c(Cl)c2Cl)ncn1 [Example 101] | 1.1
COc1ccc(-n2nc(C(C)(C)C)cc2NC(=O)Nc2ccc(Oc3ccnc(NC(=O)N4CCC(O)C4)c3)c(Cl)c2Cl)cc1 (stereo not shown) [Example 85] | 1.1

# get_value(readout='EC50', item= COc1ccc(-n2nc(C(C)(C)C)cc2NC(=O)Nc2ccc(Oc3ccnc(NC(=O)N4CC[C@H](N(C)C)C4)c3)c(Cl)c2Cl)cc1 [Example 82] )
1.8

# get_value(readout='EC50', item= CNC(=O)Nc1nccc(Oc2ccc(NC(=O)Nc3cc(C(C)(C)C)nn3-c3ccc(CO)cc3)c(Cl)c2Cl)n1 [Example 25] )
1.2

# get_value(readout='EC50', item= COCC(=O)Nc1cc(Oc2ccc(NC(=O)Nc3cc(C(C)(C)C)nn3-c3ccc(C)cc3)c3c2CCCC3)ccn1 [Example 5] )
0.4

# get_value(readout='EC50', item= COc1ccc(-n2nc(C(C)(C)C)cc2NC(=O)Nc2ccc(Oc3ccnc(NC(=O)N4CCC(N(C)C)CC4)c3)c(Cl)c2Cl)cc1 [Example 87] )
1.7

Data provenance is patent US10000471B2.
